- Tested on: MDA-MB-468 breast
- Test protocol: NCI-60 one-dose screen, 48 h
- Reported conditions: 10 µM unless noted
Compounds without any hit were thinned out: in the full panel of roughly 83,000, 20% have a hit. The source made the active and inactive calls. How the source made its calls: active means growth percent below 10; inactive means the rest.
Outcome codes: y (active), n (inactive)

> print(dat)
                                   compound  class.assignment
1       CC/C(=C/c1ccc(OC)cc1OC)[N+](=O)[O-]                 y
2  COc1cc([C@@H]2c3cc4c(cc3[C@H](OC(C)=O)[C@H]3COC(=O)[C@H]23)OCO4)cc(OC)c1OC                 n
3                  [Cl][Hg][c]1ccc2ccccc2c1                 y
4                  O=C(O)CNC(=O)C(Cl)(Cl)Cl                 n
5  Oc1ccc2c3c1OC1[C@@H](O)CC[C@@]4(O)[C@@H](C2)N(CC2CCC2)CC[C@]314 (some centres undefined)                 n
6  CC(C)(O)/C=C/C(=O)[C@](C)(O)[C@H]1[C@H](O)C[C@@]2(C)[C@H]3CC=C4[C@@H](C[C@H](O)C(=O)C4(C)C)[C@]3(C)C(=O)C[C@]12C                 y
7  O=C(/C=C/c1ccco1)c1nc2ccccc2n1Cc1ccc(F)cc1                 n
8       C/C(=N/OC(=O)N(C)C)c1ccc(Cl)c(Cl)c1                 n
9  COc1ccc(/C=C\c2cc(OC)c(OC)c(OC)c2)cc1NC(=O)/C=C/c1cc(OC)c(OC)c(OC)c1                 n
